target.under.test: urotensin-II receptor (UTS2R) (Homo sapiens, UniProt Q9UKP6)
Construct: expressed in transfected cells; host or cells: HEK293A
Sequence (Q9UKP6 whole entry): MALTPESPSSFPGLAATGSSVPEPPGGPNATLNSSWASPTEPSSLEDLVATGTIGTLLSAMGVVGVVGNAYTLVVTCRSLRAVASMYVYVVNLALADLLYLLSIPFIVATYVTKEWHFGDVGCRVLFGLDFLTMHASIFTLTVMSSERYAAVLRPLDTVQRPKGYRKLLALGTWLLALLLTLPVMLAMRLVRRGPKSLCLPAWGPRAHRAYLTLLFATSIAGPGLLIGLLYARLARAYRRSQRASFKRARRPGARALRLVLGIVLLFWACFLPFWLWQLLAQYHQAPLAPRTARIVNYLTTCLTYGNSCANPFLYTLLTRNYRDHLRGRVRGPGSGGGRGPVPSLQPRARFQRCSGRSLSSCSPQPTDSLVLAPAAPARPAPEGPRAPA
assay.details: TGFα-shedding assay, concentration-response on UTS2R (endogenous G protein), with or without urantide
Assay type: cell-based
experimental.setup: pEC50 (TGFα-shedding response for UTS2R), WT UTS2R, without chimeric Gα protein, HEK293A cells
measured.attribute: EC50 (µM)
Only the number, expressed in µM, is required.

Summary: CCC(CC)COC(=O)[C@H](C)N[P@](=O)(OC[C@H]1O[C@@](C#N)(c2ccc3c(N)ncnn23)[C@H](O)[C@@H]1O)Oc1ccccc1 , urotensin-II receptor (UTS2R) (Homo sapiens, UniProt Q9UKP6), EC50 = 12.9

----------
target.under.test: 348 GPCRs (Homo sapiens, UniProt P32249)
Construct: expressed in transfected cells; host or cells: HEK293A
Sequence (P32249 whole entry): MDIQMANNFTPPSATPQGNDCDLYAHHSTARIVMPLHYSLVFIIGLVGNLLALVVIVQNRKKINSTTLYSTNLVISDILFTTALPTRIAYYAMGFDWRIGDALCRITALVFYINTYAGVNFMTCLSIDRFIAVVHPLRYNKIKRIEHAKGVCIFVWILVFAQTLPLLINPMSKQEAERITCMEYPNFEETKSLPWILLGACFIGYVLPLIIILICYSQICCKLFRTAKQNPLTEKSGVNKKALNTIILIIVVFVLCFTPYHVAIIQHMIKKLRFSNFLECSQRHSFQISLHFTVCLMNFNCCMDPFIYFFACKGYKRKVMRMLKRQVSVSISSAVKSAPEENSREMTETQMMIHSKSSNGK
assay.details: TGFα-shedding assay-based GPCR screening with chimeric Gα subunit proteins
Assay type: cell-based
experimental.setup: EBI2 (G protein-coupled receptor 183 (Epstein-Barr Virus Induced Gene 2)); 10µM, Favipiravir 100μM
measured.attribute: % GPCR activation compared to TPA (%)
Only the number, expressed in %, is required.

Consider the reported % GPCR activation compared to TPA for these compounds:
>>> observed_value("CC(C)C(=O)OC[C@H]1O[C@@H](n2ccc(NO)nc2=O)[C@H](O)[C@@H]1O")
-0.8417
>>> observed_value("CC(C)OC(=O)[C@H](C)N[P@](=O)(OC[C@H]1O[C@@H](n2ccc(=O)[nH]c2=O)[C@](C)(F)[C@@H]1O)Oc1ccccc1")
-0.7581
>>> observed_value("N#C[C@@]1(c2ccc3c(N)ncnn23)O[C@H](CO)[C@@H](O)[C@H]1O")
-1.471
>>> observed_value("NC(=O)c1nc(F)cnc1O [favipiravir, 6-fluoro-3-hydroxy-2-pyrazinecarboxamide]")
-1.156

get_value(item= CCC(CC)COC(=O)[C@H](C)N[P@](=O)(OC[C@H]1O[C@@](C#N)(c2ccc3c(N)ncnn23)[C@H](O)[C@@H]1O)Oc1ccccc1 , readout=% GPCR activation compared to TPA) returns 0.4815

----------
Property: % GPCR activation compared to TPA; scope: individual compounds
target.under.test: 348 GPCRs (Homo sapiens, UniProt Q8WXD0)
Construct: expressed in transfected cells; host or cells: HEK293A
Sequence (Q8WXD0 whole entry): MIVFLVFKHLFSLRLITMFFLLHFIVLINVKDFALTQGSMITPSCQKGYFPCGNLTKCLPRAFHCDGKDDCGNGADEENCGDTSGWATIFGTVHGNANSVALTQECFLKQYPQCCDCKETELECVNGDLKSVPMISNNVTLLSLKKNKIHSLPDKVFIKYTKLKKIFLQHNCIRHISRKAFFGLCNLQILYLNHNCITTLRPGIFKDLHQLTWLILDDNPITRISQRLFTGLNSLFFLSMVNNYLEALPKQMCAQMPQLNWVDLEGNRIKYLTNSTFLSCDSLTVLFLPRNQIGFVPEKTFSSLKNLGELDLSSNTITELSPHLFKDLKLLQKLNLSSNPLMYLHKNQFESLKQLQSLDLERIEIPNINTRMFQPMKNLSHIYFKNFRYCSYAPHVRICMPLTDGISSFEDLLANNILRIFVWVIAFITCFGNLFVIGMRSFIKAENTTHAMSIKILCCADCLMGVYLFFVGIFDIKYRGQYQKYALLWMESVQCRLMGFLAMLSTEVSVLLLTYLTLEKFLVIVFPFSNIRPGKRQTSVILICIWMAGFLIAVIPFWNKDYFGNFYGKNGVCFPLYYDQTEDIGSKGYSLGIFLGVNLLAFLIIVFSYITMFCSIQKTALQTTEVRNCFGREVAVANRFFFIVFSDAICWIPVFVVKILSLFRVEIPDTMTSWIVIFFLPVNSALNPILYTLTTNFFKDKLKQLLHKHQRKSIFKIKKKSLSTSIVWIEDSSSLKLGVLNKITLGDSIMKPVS
assay.details: TGFα-shedding assay-based GPCR screening with chimeric Gα subunit proteins
Assay type: cell-based
experimental.setup: RXFP2 (relaxin/insulin-like family peptide receptor 2); 10µM, Favipiravir 100μM
Only the number, expressed in %, is required.

>>> observed_value("NC(=O)c1nc(F)cnc1O [favipiravir, 6-fluoro-3-hydroxy-2-pyrazinecarboxamide]")
-0.6733
>>> observed_value("N#C[C@@]1(c2ccc3c(N)ncnn23)O[C@H](CO)[C@@H](O)[C@H]1O")
-1.305
>>> observed_value("CC(C)OC(=O)[C@H](C)N[P@](=O)(OC[C@H]1O[C@@H](n2ccc(=O)[nH]c2=O)[C@](C)(F)[C@@H]1O)Oc1ccccc1")
-1.511
>>> observed_value("CCC(CC)COC(=O)[C@H](C)N[P@](=O)(OC[C@H]1O[C@@](C#N)(c2ccc3c(N)ncnn23)[C@H](O)[C@@H]1O)Oc1ccccc1")
0.3691

API: the following record is the query input.
get_value(item= CC(C)C(=O)OC[C@H]1O[C@@H](n2ccc(NO)nc2=O)[C@H](O)[C@@H]1O , readout=% GPCR activation compared to TPA) returns -1.679

----------
target.under.test: UniProt P41143
Sequence (P41143 whole entry): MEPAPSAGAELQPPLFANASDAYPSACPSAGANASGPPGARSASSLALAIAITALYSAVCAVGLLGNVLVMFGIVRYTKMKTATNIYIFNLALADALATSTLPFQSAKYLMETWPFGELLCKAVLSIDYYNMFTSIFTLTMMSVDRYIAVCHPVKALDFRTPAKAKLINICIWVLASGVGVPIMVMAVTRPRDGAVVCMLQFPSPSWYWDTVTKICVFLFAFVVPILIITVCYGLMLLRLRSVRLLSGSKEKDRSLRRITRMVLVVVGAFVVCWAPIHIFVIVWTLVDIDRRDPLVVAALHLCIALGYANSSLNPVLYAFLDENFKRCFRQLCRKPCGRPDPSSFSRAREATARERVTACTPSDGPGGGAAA
assay.details: TGFα-shedding assay-based GPCR screening with chimeric Gα subunit proteins
Assay type: cell-based
experimental.setup: read-out: % GPCR activation compared to TPA, OPRD1 (opioid receptor, delta 1 (DOR)); 10µM, Favipiravir 100μM
measured.attribute: activation at 100 µM (%)
Only the number, expressed in %, is required.

Consider the reported activation at 100 µM for these compounds:
>>> observed_value("N#C[C@@]1(c2ccc3c(N)ncnn23)O[C@H](CO)[C@@H](O)[C@H]1O [GS441524]")
-2.68
>>> observed_value("CC(C)C(=O)OC[C@H]1O[C@@H](n2ccc(NO)nc2=O)[C@H](O)[C@@H]1O [molnupiravir]")
-1.93

get_value(item= CC(C)OC(=O)[C@H](C)N[P@](=O)(OC[C@H]1O[C@@H](n2ccc(=O)[nH]c2=O)[C@](C)(F)[C@@H]1O)Oc1ccccc1 [sofosbuvir] , readout=activation at 100 µM) returns -2.64

get_value(item= CCC(CC)COC(=O)[C@H](C)N[P@](=O)(OC[C@H]1O[C@@](C#N)(c2ccc3c(N)ncnn23)[C@H](O)[C@@H]1O)Oc1ccccc1 [remdesivir] , readout=activation at 100 µM) returns -3.05

get_value(item= NC(=O)c1nc(F)cnc1O [favipiravir, 6-fluoro-3-hydroxy-2-pyrazinecarboxamide] , readout=activation at 100 µM) returns -3.28

----------
Property: activation at 10 µM; scope: individual compounds
target.under.test: 348 GPCRs (Homo sapiens, UniProt P35372)
Sequence (P35372 whole entry): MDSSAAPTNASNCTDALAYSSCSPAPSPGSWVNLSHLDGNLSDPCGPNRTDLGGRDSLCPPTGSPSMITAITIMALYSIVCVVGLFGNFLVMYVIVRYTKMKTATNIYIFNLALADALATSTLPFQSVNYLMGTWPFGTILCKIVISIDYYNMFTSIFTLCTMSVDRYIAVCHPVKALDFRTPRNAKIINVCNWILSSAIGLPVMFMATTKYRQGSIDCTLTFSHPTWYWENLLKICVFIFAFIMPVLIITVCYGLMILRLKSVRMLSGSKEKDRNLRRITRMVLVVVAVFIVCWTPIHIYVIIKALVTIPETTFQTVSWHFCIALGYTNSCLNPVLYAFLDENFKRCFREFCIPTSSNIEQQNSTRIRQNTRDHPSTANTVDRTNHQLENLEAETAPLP
assay.details: TGFα-shedding assay-based GPCR screening with chimeric Gα subunit proteins
Type: cell-based
experimental.setup: OPRM1, read-out: % GPCR activation compared to TPA, OPRM1 (opioid receptor, mu 1 (MOR1)); 10µM, Favipiravir 100μM
Only the number, expressed in %, is required.

Consider the reported activation at 10 µM for these compounds:
>>> observed_value("CC(C)C(=O)OC[C@H]1O[C@@H](n2ccc(NO)nc2=O)[C@H](O)[C@@H]1O")
-3.97
>>> observed_value("CC(C)OC(=O)[C@H](C)N[P@](=O)(OC[C@H]1O[C@@H](n2ccc(=O)[nH]c2=O)[C@](C)(F)[C@@H]1O)Oc1ccccc1")
-0.878
>>> observed_value("CCC(CC)COC(=O)[C@H](C)N[P@](=O)(OC[C@H]1O[C@@](C#N)(c2ccc3c(N)ncnn23)[C@H](O)[C@@H]1O)Oc1ccccc1")
-2.36

API: the following record is the query input.
Summary: N#C[C@@]1(c2ccc3c(N)ncnn23)O[C@H](CO)[C@@H](O)[C@H]1O , 348 GPCRs (Homo sapiens, UniProt P35372), activation at 10 µM = -2.75

----------
Property: % GPCR activation compared to TPA; scope: individual compounds
target.under.test: 348 GPCRs (Homo sapiens, UniProt Q8TDU9)
Construct: expressed in transfected cells; host or cells: HEK293A
Sequence (Q8TDU9 whole entry): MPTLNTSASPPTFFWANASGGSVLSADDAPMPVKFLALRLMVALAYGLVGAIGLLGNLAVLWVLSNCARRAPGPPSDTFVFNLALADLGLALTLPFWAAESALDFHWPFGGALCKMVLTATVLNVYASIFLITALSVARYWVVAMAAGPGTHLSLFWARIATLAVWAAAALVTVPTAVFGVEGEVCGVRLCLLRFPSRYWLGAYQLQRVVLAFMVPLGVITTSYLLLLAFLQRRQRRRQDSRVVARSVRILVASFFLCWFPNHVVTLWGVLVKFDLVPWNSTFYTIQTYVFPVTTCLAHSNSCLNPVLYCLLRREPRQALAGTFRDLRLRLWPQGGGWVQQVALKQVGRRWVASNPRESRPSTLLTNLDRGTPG
assay.details: TGFα-shedding assay-based GPCR screening with chimeric Gα subunit proteins
Assay type: cell-based
experimental.setup: RXFP4 (relaxin/insulin-like family peptide receptor 4); 10µM, Favipiravir 100μM
Kindly report the value followed by its unit.

Consider the reported % GPCR activation compared to TPA for these compounds:
>>> observed_value("CC(C)OC(=O)[C@H](C)N[P@](=O)(OC[C@H]1O[C@@H](n2ccc(=O)[nH]c2=O)[C@](C)(F)[C@@H]1O)Oc1ccccc1 [sofosbuvir]")
"-1.565%"
>>> observed_value("CC(C)C(=O)OC[C@H]1O[C@@H](n2ccc(NO)nc2=O)[C@H](O)[C@@H]1O [molnupiravir]")
"-0.4598%"
>>> observed_value("N#C[C@@]1(c2ccc3c(N)ncnn23)O[C@H](CO)[C@@H](O)[C@H]1O [GS441524]")
"-0.3375%"
>>> observed_value("NC(=O)c1nc(F)cnc1O [favipiravir, 6-fluoro-3-hydroxy-2-pyrazinecarboxamide]")
"1.69%"

API: the following record is the query input.
get_value(item= CCC(CC)COC(=O)[C@H](C)N[P@](=O)(OC[C@H]1O[C@@](C#N)(c2ccc3c(N)ncnn23)[C@H](O)[C@@H]1O)Oc1ccccc1 [remdesivir] , readout=% GPCR activation compared to TPA) returns 0.9967%

----------
target.under.test: 348 GPCRs (Homo sapiens, UniProt P47900)
Construct: expressed in transfected cells; host or cells: HEK293A
Sequence (P47900 whole entry): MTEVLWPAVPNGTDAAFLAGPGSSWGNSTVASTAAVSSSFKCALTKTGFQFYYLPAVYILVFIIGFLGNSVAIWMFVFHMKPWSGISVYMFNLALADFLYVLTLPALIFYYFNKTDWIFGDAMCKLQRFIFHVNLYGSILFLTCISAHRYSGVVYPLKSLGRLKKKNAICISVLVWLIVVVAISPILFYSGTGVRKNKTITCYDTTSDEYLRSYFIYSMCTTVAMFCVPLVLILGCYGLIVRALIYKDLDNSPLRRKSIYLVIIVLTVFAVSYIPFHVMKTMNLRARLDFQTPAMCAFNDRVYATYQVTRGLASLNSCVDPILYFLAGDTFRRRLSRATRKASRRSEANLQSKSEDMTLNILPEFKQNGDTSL
assay.details: TGFα-shedding assay-based GPCR screening with chimeric Gα subunit proteins
Assay type: cell-based
experimental.setup: GPCR P2Y1 (purinergic receptor P2Y, G-protein coupled, 1); 10µM
Property: % GPCR activation compared to TPA; scope: individual compounds
Only the number, expressed in %, is required.

get_value(item= N#C[C@@]1(c2ccc3c(N)ncnn23)O[C@H](CO)[C@@H](O)[C@H]1O , readout=% GPCR activation compared to TPA) returns -0.4592

get_value(item= CCC(CC)COC(=O)[C@H](C)N[P@](=O)(OC[C@H]1O[C@@](C#N)(c2ccc3c(N)ncnn23)[C@H](O)[C@@H]1O)Oc1ccccc1 , readout=% GPCR activation compared to TPA) returns 11.0377

get_value(item= CC(C)OC(=O)[C@H](C)N[P@](=O)(OC[C@H]1O[C@@H](n2ccc(=O)[nH]c2=O)[C@](C)(F)[C@@H]1O)Oc1ccccc1 , readout=% GPCR activation compared to TPA) returns -4.632

get_value(item= CC(C)C(=O)OC[C@H]1O[C@@H](n2ccc(NO)nc2=O)[C@H](O)[C@@H]1O , readout=% GPCR activation compared to TPA) returns -11.8258
